endpoint: melting point

Items follow; give melting point for each.
1. COc1ccc(/C(=C\C=C\C(=O)O)c2ccccc2OC)cc1
2. COC(=O)c1ccc2c(c1)OCCC2NC(=O)OCc1ccccc1 (stereo not drawn)
3. CCCCc1nc(Cl)c(CC#N)n1Cc1ccc(C#N)cc1
4. COC(=O)c1[nH]c2c(C)ccc(C)c2c1SC
5. O=c1ccn(-c2ccc3c(c2)Cc2cc(=O)[nH]nc2-3)cc1

1: 159 to 161 °C; 2: 140 to 142 °C; 3: 110 to 113 °C; 4: 82 to 85 °C; 5: > 300 °C

====

endpoint: melting point

Value lookup for melting point; key = "O[C@@H](CNCCOc1ccc2oc(-c3noc(C(F)(F)F)n3)cc2c1)COc1ccccc1" 108 to 113 °C

Item: "COc1ccc2ccc(NC(=O)c3cccc(OC(C)=O)c3)nc2n1" 172 °C

Please state, for each entry, its recorded melting point.
1. CC(=O)C1C(=O)CN(Cc2ccccc2)C1=O (stereo unspecified)
2. CCCCC(=O)Nc1ccc(C(F)(F)F)c(-n2nc(CCCC)n(Cc3ccc(-c4ccccc4S(=O)(=O)NC(=O)c4ccccc4Cl)cc3F)c2=O)c1
3. O=C(c1ccc2ccccc2c1)N1CC[C@H](NCc2ccnc3ccccc23)C[C@H]1Cc1ccccc1 (relative stereo)
4. O=C1Cc2ccccc2SN1
5. CC(=O)OC[C@H]1NC(=O)[C@@H](Cc2cn(C)c3ccccc23)NC1=O
6. Cc1oc(-c2ccccc2)nc1COc1cncc(CO)c1
7. CCCCNCC(=O)Nc1ccc2c(c1)C(=O)c1cc(NC(=O)CNCCCC)ccc1C2=O
8. CS(=O)(=O)OCCCCCCNC(=O)CNC(=O)OCc1ccccc1

74 to 75 °C
145 to 147 °C
111 to 112 °C
175 °C
250 to 252 °C
111 to 112 °C
125 °C
82 to 83 °C

Bench note: what melting point did "Cc1cccc(Cl)c1CO" show? 83 to 86 °C

====

endpoint: melting point

A selection of reference data follows.
Query: melting point; subject: CC#CCOc1ccc(S(=O)(=O)C(C(=O)NO)c2cccc(Cl)c2)cc1 (stereo not drawn) 50 °C

Try this compound next: "Cc1c(N2CC(O)C2)c(F)cc2c(=O)c(C(=O)O)cn(-c3cc(N)c(F)cc3F)c12" 206 to 208 °C

Hi team, please reply with melting point for each item in this list.
1. COC(=O)N1CCN(C(=O)c2cc(S(=O)(=O)NN(C)C)ccc2N)CC1
2. CC(C)(Nc1cccc(C(=N)N)c1)C(=O)Nc1ccc(-c2ccccc2S(N)(=O)=O)cc1
3. Cn1nc(-c2ccccc2)c(C2CCCCC2)c1N
4. CN(C)c1ccc(NC(=O)N(C[C@H]2CCC[C@H](CN(C(=O)Nc3ccc(N(C)C)cc3)C3CCCC3)C2)C2CCCC2)cc1 (relative stereo)
5. O=C(O)c1ccccc1N1C(=O)c2ccc([N+](=O)[O-])cc2C1=O

169 to 171 °C
197 °C
212 to 214 °C
142 to 147 °C
242 to 243 °C

Param item = "Cc1nn2c(-c3cccc(C(F)(F)F)c3)ccnc2c1C#N" ; retrieve measured melting point. 149 to 150 °C

====

What melting point was measured for each of the following?

Consider the compound CC12CCC(OS(=O)(=O)C(F)(F)F)=CC1=CCC1C2CCC2(C)C(C(=O)N(C(=S)NC3CCCCC3)C3CCCCC3)CCC12 (stereo not given) and give its measured melting point. 123 to 124 °C

Items follow; give melting point for each.
1. Cc1cccc(Nc2cc(Cl)nc(SCC(=O)NN3CCOCC3)n2)c1C
2. N#Cc1ccc(/C=C/C2=CCN(Cc3c[nH]c4ncccc34)CC2)cc1
3. CNC(=O)C(C)(C)OCc1cc(-c2ccc(Cl)cc2)no1
4. CCCc1c2cc(C(=O)OCC)oc2cc2c(=O)cc(C(=O)OCC)oc12

["106 to 108 °C", "213 to 215 °C", "93 to 94 °C", "145 to 147 °C"]

====

Exercise: for every item that follows, state its recorded melting point.

Worked cases, melting point given:
Please look up its melting point: CC(=O)NCCC1CCc2ccc3nc(C(F)(F)F)oc3c21 (stereo unspecified) 114 to 116 °C

Now the molecule "Cc1nc2ccc(OCCCN3CCC(OC(c4ccccc4)c4ccccc4)CC3)nn2n1" 134 to 136 °C

Ok, now "Oc1c(F)cc(Oc2ncc(C(F)(F)F)cc2F)cc1F" 125 to 128 °C

Try this molecule too: "O=[N+]([O-])c1cccc(Cl)c1NCc1ccccc1Cl" 69 to 71 °C

One more molecule: "Oc1cccc(-c2ccccc2-c2nc(-c3ccccc3)c(-c3ccccc3)o2)c1" 125 to 128 °C

Next:
Bench note: what melting point did "CC(=O)c1ccc(-c2ncc[nH]2)cc1" show? 213 to 216 °C

====

I'd appreciate it if you could supply melting point values for the items below.

I have this compound here, "CCCC(=O)C(=O)NCC(OCC)(OCC)c1ccncc1" , and I need its recorded melting point. 95 to 96 °C

Entry "CC(=O)N1CCN(c2c(-c3ccccc3)sc3ccccc23)CC1" please 167 to 169 °C

Continue with "O=[N+]([O-])c1oc2c(NS(=O)(=O)C(F)(F)F)cccc2c1-c1ccccc1" 168 to 170 °C

Here are 7 compounds. What values of melting point were reported for them?
1. CCOC(=O)C1=C(C)Nc2nc(N)nc(N)c2C1c1cccc([N+](=O)[O-])c1 (stereo unspecified)
2. NS(=O)(=O)c1cnc(NC(=O)c2cnn3c(C(F)(F)F)cc(-c4ccc(C(F)(F)F)cc4)nc23)s1
3. CCOC(=O)c1c(C)nc2c(cnn2CC)c1NCCC(C)O (stereo unspecified)
4. CN1C(=O)c2cccc(SCc3ccccc3)c2C1=O
5. Cc1ccc(C(C)(C)C)c(SC2=C(O)CC(CCc3ccccc3)(c3ccc(OCCN4CCNCC4)cc3)OC2=O)c1 (stereo unspecified)
6. CCOC(=O)c1nc(-c2ccc(F)cc2)[nH]c1CC
7. IC#CCSc1ccncc1

1: 230 °C; 2: 309 °C; 3: 94.5 to 96.5 °C; 4: 180 to 187 °C; 5: 175 °C; 6: 197 to 198 °C; 7: 140 °C

Provide each entry's melting point from the list below.
1. CCCc1ccc(C=O)n1Cc1ccc(-c2ccccc2-c2nnn[nH]2)cc1
2. CC1(C)CC(=NO)c2cc(-c3ccccc3)ccc2O1

68 to 71 °C
130 to 134 °C

Here are 4 compounds. What values of melting point were reported for them?
1. CN1CCN(c2cc(Cl)cc3[nH]c(=O)n(Cc4ccccc4)c(=O)c23)CC1
2. COc1ccc(N2C(=O)C(O)=C(C(=O)c3ccc(C(C)C)cc3)C2c2ccc(OC(F)(F)F)cc2)nn1 (stereo unspecified)
3. COc1ccc(OC)c(CC(=O)c2ccc(C(C)C)c(OS(N)(=O)=O)c2C(C)C)c1
4. O=C1NC(=O)C(Cc2ccc(OCCn3ccc4cccnc43)cc2)S1 (stereo unspecified)

1: 208 to 210 °C; 2: 271 °C; 3: 150 to 152 °C; 4: 200 to 202 °C

====

endpoint: melting point

// below: answered compounds
Need melting point, item "Oc1cccc2c(Cl)ncnc12" > 252 °C

Record: "CC(C)(c1ccc(N)cc1)c1ccc(N)cc1" 130 to 132 °C

Same read-out for "CCCC(=O)Nc1cc(Oc2ccc(Cl)cc2)ccc1NC(=NC(=O)OC)NC(=O)OC" ? 201 °C

Also, Cc1noc(C)c1CC(C)(NC(=O)OC1C2CC3CC(C2)CC1C3)C(=O)NCCc1ccccc1 (centres undefined) please. 70 to 73 °C

What do we get for COc1cc(C(O)c2cccs2)cc([N+](=O)[O-])c1OC (centres undefined) ? 79 to 81 °C

For "CCOC(=O)C(=O)Nc1cc(CC)c(C(=O)OCC)s1" then? 103 to 105 °C

State the recorded melting point for every item in the following list.
1. Cc1ccc(-n2c(=O)[nH]c3ccccc3c2=O)cc1
2. Cc1c(C)c2c(c(C)c1OCc1ccccc1)C(CN1CCCC1CO)C(C)(C)O2 (mixture of isomers)
3. CC(=O)N1CCN(CC(C)NC(=O)c2ccc3c(c2)c(-c2ccccc2)nn3C)CC1 (centres undefined)

267 °C
99 to 101 °C
98.8 to 100 °C

====

Residues, ends and D or L forms follow the SMILES beside them. *: point of attachment. Propionyl = CCC(=O)*; NHPh = c1ccc(N*)cc1
Please provide measured melting point for the entries that follow.

For orientation, consider the following solved cases.
May I ask what melting point has been recorded for "O=C(/C=C/c1ccc(O)c(C(F)(F)F)c1)/C=C/c1ccc(O)c(C(F)(F)F)c1" ? 233 to 234 °C

How about this compound: "COc1cccc(-c2nc(Nc3ccc(Cl)cc3)c3ccccc3n2)n1" 157 to 160 °C

For the 5 compounds below, give their melting point values.
1. CC(C)(C)c1cc(SCN2C(=O)c3ccccc3C2=O)cc(C(C)(C)C)c1O
2. Nc1cccc2c1NC(=O)C2
3. CCC(=O)N[C@@H](C)C(=O)N1CCC[C@H]1C(=O)Nc1ccccc1 (Propionyl-Ala-Pro-NHPh)
4. COc1ccc(C(=O)Nc2cc(-c3c(-c4ccc(F)c(C)c4)nc4cccnn34)ccn2)cc1
5. COc1ccc([C@H](CC(=O)O)N2CCN(CCCc3ccc4c(n3)NCCC4)C2=O)cn1

["151 to 153 °C", "248 to 251 °C", "156 to 157 °C", "222 to 223 °C", "122 °C"]

Required: melting point, one value per compound below.
1. CC(C)(C)OC(=O)N1CCC[C@@H]1[C@@H](NC(=O)c1ccc(Cl)cc1)NC(=NC#N)Nc1cccnc1
2. CCOC(=O)c1c(O)c2cc(Cl)cnc2n(Cc2ccc(OC)cc2)c1=O
3. Cc1c(CO)ncnc1N(C)C
4. COC1(OC)C2(Cl)C(Cl)=C(Cl)C1(Cl)C1OC(=O)OC12 (stereo not given)
5. CCOC(=O)C1=C(C)NC(C)=C(C(=O)OCC)C1c1cc([N+](=O)[O-])ccc1OCCCCNCC(O)COc1ccccc1 (stereo not given)
6. CCCCCNC(=O)N(C)c1cccc(-c2ccc(C=C(C)C(=O)O)cc2OCCCC)c1
7. COC(=O)c1cccc(-c2noc(C)n2)c1
8. CCCCOc1ncc(C(C)=O)cc1-c1nn2c(CC)nc(CCC)c2c(=O)[nH]1

1: 184 to 185 °C; 2: 185 to 187 °C; 3: 46 to 48 °C; 4: 160 to 162 °C; 5: 141 to 143 °C; 6: 87 to 89 °C; 7: 81 °C; 8: 155 to 156 °C

Batch lookup, melting point per entry.
1. CCC1(CC)C(=O)c2cc(O)c(C)c(C)c2C1=O
2. CC(C)(C)OC(=O)NC(C(=O)Oc1ccc(/C=c2\[nH]c(=O)/c(=C/c3ccccc3)[nH]c2=O)nc1)c1ccccc1 (stereo not given)
3. C=Cc1ccc(C(=O)OC)[nH]1

1. 141 to 142 °C
2. 198 °C
3. 91 to 93 °C

For every listed record, write down its melting point.
1. CN(C)c1ccc(-n2c(CC(=O)O)c(C(=O)O)c3cc(Oc4ccc(C(F)(F)F)cc4)ccc32)cc1
2. COc1cc(C)c(OCCCC(C)(C)C(=O)O)cc1C

1. 235 to 237 °C
2. 85 to 86 °C

The reported numbers originate from a melting point compilation (Tetko et al.; mined from patent text by program, amines drawn as free bases though some values may be those of a salt).
